Tested on: THP-1 cells
protocol-notes: TNFα generation assay
Assay type: cell-based, human
setup-conditions: Homo sapiens, THP-1, THP-1 cells; Table 22; read-out: IC50 in TNFα generation assay
quantity-measured: IC50

Some solved cases for reference:
- NC(=O)c1cc(F)c(N[C@@H]2CCCC[C@@H]2N)nc1Nc1cncc(-c2nnco2)c1 (relative stereo): 65 to 130 nM
- C[C@H](N)[C@@H](CC1CC1)Nc1nc(Nc2ccc3cnn(C)c3c2)c(C(N)=O)cc1F: 65 to 130 nM
- NC(=O)c1cc(F)c(N[C@@H]2CCCC[C@@H]2N)nc1Nc1cnc2ncsc2c1: < 65 nM

Q: Find the recorded IC50 belonging to Cc1cnc2cc(Nc3nc(N[C@H](C)[C@H](C)N)c(F)cc3C(N)=O)ccc2n1 (racemic) and report it.
Result: 65 to 130 nM

Q: Find the recorded IC50 belonging to `COCCOc1ncc(Nc2nc(N[C@@H]3CCCC[C@@H]3N)c(F)cc2C(N)=O)cc1F` and report it.
Result: 65 to 130 nM

Q: Find the recorded IC50 belonging to `CCC[C@@H](Nc1nc(Nc2cnc3cc(OC)ccc3c2)c(C(N)=O)cc1F)[C@H](C)N` and report it.
Result: 65 to 130 nM

----------
System: THP-1 cells
protocol-notes: TNFα generation assay
Format: cell-based, human
setup-conditions: Homo sapiens, THP-1, THP-1 cells; Table 22; read-out: IC50 in TNFα generation assay
# maps each entry to its IC50

- CCn1ncc2c(Nc3nc(NC4CCCCC4N)c(F)cc3C(N)=O)cccc21 (stereo not drawn) [Example 002-186]: 65 to 130 nM
- CCCc1nn(C)c2ccc(Nc3nc(N[C@H](CC4CC4)[C@H](C)N)c(F)cc3C(N)=O)cc12 [Example 006-464]: 65 to 130 nM
- CCC[C@@H](Nc1nc(Nc2cncc(-c3cccc(OC)c3)c2)c(C(N)=O)cc1F)[C@H](C)N [Example 006-284]: 130 to 200 nM
- CCC[C@@H](Nc1nc(Nc2ccc3cnn(C)c3c2)c(C(N)=O)cc1F)[C@H](C)N [Example 006-359]: < 65 nM
- Cc1ncc(Nc2nc(N[C@@H]3CCCC[C@@H]3N)c(F)cc2C(N)=O)cc1-n1nccn1 [Example 006-375]: 65 to 130 nM

Q: // lookup IC50 | system=THP-1 cells | key= CCn1ncc2cc(Nc3nc(N[C@H](COC)[C@H](C)N)c(F)cc3C(N)=O)ccc21 [Example 006-469]
Result: < 65 nM

Q: // lookup IC50 | system=THP-1 cells | key= CCn1nc(C)c2ccc(Nc3nc(N[C@H](CC4CC4)[C@H](C)N)c(F)cc3C(N)=O)cc21 [Example 006-486]
Result: 130 to 200 nM

Q: // lookup IC50 | system=THP-1 cells | key= CC(C)C[C@H](CN)Nc1nc(Nc2ccc3ncccc3c2)c(C(N)=O)cc1F [Example 006-117]
Result: < 65 nM

Q: // lookup IC50 | system=THP-1 cells | key= NC(=O)c1cc(F)c(N[C@@H]2CCCC[C@@H]2N)nc1Nc1cncc(-c2cccc([N+](=O)[O-])c2)c1 (relative stereo) [Example 004-215]
Result: 65 to 130 nM

Q: // lookup IC50 | system=THP-1 cells | key= NC(=O)c1cc(F)c(N[C@@H]2CCCC[C@@H]2N)nc1Nc1cc(-n2cncn2)nc2[nH]ccc12 (relative stereo) [Example 004-069]
Result: 65 to 130 nM

Q: // lookup IC50 | system=THP-1 cells | key= COc1cc(Nc2nc(NCCN)c(F)cc2C(N)=O)cc(OC)c1 [Example 008-001]
Result: 65 to 130 nM

Q: // lookup IC50 | system=THP-1 cells | key= CCc1nn(C)c2ccc(Nc3nc(N[C@H](C4CC4)[C@H](C)N)c(F)cc3C(N)=O)cc12 [Example 006-578]
Result: 65 to 130 nM

Q: // lookup IC50 | system=THP-1 cells | key= CCCC[C@H](CN)Nc1nc(Nc2ccc3c(cnn3CC)c2)c(C(N)=O)cc1F [Example 006-323]
Result: 65 to 130 nM

Q: // lookup IC50 | system=THP-1 cells | key= CC[C@@H](Nc1nc(Nc2ccnc(OC)c2)c(C(N)=O)cc1F)[C@H](C)N [Example 006-266]
Result: < 65 nM

Q: // lookup IC50 | system=THP-1 cells | key= Cc1nccc(Nc2nc(NC3CCCCC3N)c(F)cc2C(N)=O)c1F (stereo not drawn) [Example 002-163]
Result: 130 to 200 nM

----------
measured-on: glutathione S-transferase (GST)-fused full-length human Syk protein (Homo sapiens, UniProt P43405)
Construct: (GST)-fused full-length human Syk protein; GST (glutathione S-transferase); purchased Carna Biosciences
protocol-notes: Syk enzyme assay
Format: biochemical
setup-conditions: Syk enzyme assay, Test Example 1; read-out: IC50 of Syk-inhibitory activity
quantity-measured: IC50

- COc1ccc(-c2cncc(Nc3nc(N[C@@H]4CCCC[C@@H]4N)c(F)cc3C(N)=O)c2)cc1 (relative stereo): < 10 nM
- Cc1cc(Nc2nc(N[C@@H]3CCCC[C@@H]3N)c(F)cc2C(N)=O)cnc1-n1ccnn1: 10 to 50 nM
- CC[C@@H](Nc1nc(Nc2ccc3nccnc3c2)c(C(N)=O)cc1F)[C@H](C)N: < 10 nM

Okay, now this compound:
Q: Find the recorded IC50 belonging to `CC[C@@H](Nc1nc(Nc2cncc(-c3ccccc3F)c2)c(C(N)=O)cc1F)[C@H](C)N` and report it.
Result: < 10 nM

----------
System: THP-1 cells
protocol-notes: TNFα generation assay
Assay type: cell-based, human
setup-conditions: Homo sapiens, THP-1, THP-1 cells; Table 22; read-out: IC50 in TNFα generation assay
# maps each entry to its IC50

Some solved cases for reference:
- NC(=O)c1cc(F)c(N[C@@H]2CCCC[C@@H]2N)nc1Nc1cccc2ncccc12: < 65 nM
- NC(=O)c1cc(F)c(N[C@@H]2CCCC[C@@H]2N)nc1Nc1ccnc2c1ccn2CC1CC1: 130 to 200 nM
- C[C@H](N)[C@@H](CC1CC1)Nc1nc(Nc2cncc(-n3nccn3)c2)c(C(N)=O)cc1F: < 65 nM
- CC[C@@H](Nc1nc(Nc2cnc3cc(OCCOC)ccc3c2)c(C(N)=O)cc1F)[C@H](C)N: < 65 nM
- CCCc1nn(C)c2ccc(Nc3nc(N[C@@H]4CCCC[C@@H]4N)c(F)cc3C(N)=O)cc12: 130 to 200 nM

Q: Find the recorded IC50 belonging to `CC[C@@H](Nc1nc(Nc2ccc3nc(OCCOC)ccc3c2)c(C(N)=O)cc1F)[C@H](C)N` and report it.
Result: < 65 nM

Q: Find the recorded IC50 belonging to `CCn1nc(F)c2cc(Nc3nc(N[C@H](CC(C)C)[C@H](C)N)c(F)cc3C(N)=O)ccc21` and report it.
Result: 65 to 130 nM

Q: Find the recorded IC50 belonging to `CCCC[C@@H](Nc1nc(Nc2ccc3c(cnn3CCF)c2)c(C(N)=O)cc1F)[C@H](C)N` and report it.
Result: 65 to 130 nM

Q: Find the recorded IC50 belonging to `CC[C@@H](Nc1nc(Nc2cc(OC)nc(OC)c2)c(C(N)=O)cc1F)[C@H](C)N` and report it.
Result: < 65 nM

Q: Find the recorded IC50 belonging to Cc1nn(CCF)c2ccc(Nc3nc(NC4CCCCC4N)c(F)cc3C(N)=O)cc12 (stereo not drawn) and report it.
Result: 65 to 130 nM

----------
# maps each entry to its IC50
Test system: THP-1 cells
protocol-notes: TNFα generation assay
Assay type: cell-based, human
setup-conditions: Homo sapiens, THP-1, THP-1 cells; Table 22; read-out: IC50 in TNFα generation assay

Some solved cases for reference:
* C[C@H](N)[C@@H](C)Nc1nc(Nc2cncc(-n3cccn3)c2)c(C(N)=O)cc1F (racemic) | 65 to 130 nM
* Cc1cc(Nc2nc(N[C@H](C3CCC3)[C@H](C)N)c(F)cc2C(N)=O)cnc1C | 65 to 130 nM
* CCC[C@@H](Nc1nc(Nc2cncc(-c3cc(OC)ccc3F)c2)c(C(N)=O)cc1F)[C@H](C)N | 130 to 200 nM
* NC(=O)c1cc(F)c(N[C@@H]2CCCC[C@@H]2N)nc1Nc1cncc(-c2cccc(N)c2)c1 (relative stereo) | 65 to 130 nM
* COc1ncc(Nc2nc(N[C@@H]3CCCC[C@@H]3N)c(F)cc2C(N)=O)cc1-n1ccnn1 | 130 to 200 nM

Q: Find the recorded IC50 belonging to `C=C(C)C[C@@H](Nc1nc(Nc2ccc3c(cnn3CC)c2)c(C(N)=O)cc1F)[C@H](C)N` and report it.
Result: < 65 nM

Q: Find the recorded IC50 belonging to `COc1cc(Nc2nc(N[C@@H](CN)CC(C)C)c(F)cc2C(N)=O)ccn1` and report it.
Result: 65 to 130 nM

All values here come from patent US8895585B2.
